system: pigweed (Amaranthus retroflexus); test: Test A preemergence, visual injury rating; assay type: in vivo; conditions: 31 g ai/ha, 0 to 100 scale, 0 no effect, 100 complete control
Below, each entry is listed alongside its reported Plant response rating, Pigweed.
Please give the numeric answer without any surrounding text.

molecule="O=C(OCCC(F)(F)F)c1cc(Cl)ccc1Oc1ncc(Cl)cn1 [Compound 88]" quantity_name="Plant response rating, Pigweed" measured_value=0
molecule="FC(F)(F)CCCCCc1c(Br)cccc1Oc1ncc(Cl)cn1 [Compound 121]" quantity_name="Plant response rating, Pigweed" measured_value=0

Could you now consider this next molecule?
Note down Plant response rating, Pigweed recorded for FC(F)(F)CCCCCc1c(Cl)cccc1Oc1ncc(Cl)cn1 [Compound 124]
40

----------
test system: velvetleaf (Abutilon theophrasti); assay: Test C postemergence, plant response rating; type: in vivo; settings: 125 g ai/ha, scale 0 to 100 (0 no effect, 100 complete control)
quantity name: Velvetleaf plant response rating
Please give the numeric answer without any surrounding text.

smiles_representation=CCCCC(=O)c1c(Oc2ncc(Cl)cn2)cccc1C(F)(F)F measured_value=75

Provide Velvetleaf plant response rating, tested on velvetleaf (Abutilon theophrasti), for O=C(CCCC(F)(F)F)c1c(Oc2ncc(Cl)cn2)cccc1C(F)(F)F .
30

Provide Velvetleaf plant response rating, tested on velvetleaf (Abutilon theophrasti), for CCCC(=O)c1c(Oc2ncc(Cl)cn2)cccc1C(F)(F)F .
70

Provide Velvetleaf plant response rating, tested on velvetleaf (Abutilon theophrasti), for N#Cc1cccc(Oc2ncc(Cl)cn2)c1CCCC(F)(F)F .
70

Provide Velvetleaf plant response rating, tested on velvetleaf (Abutilon theophrasti), for CCCCC(=O)c1c(Br)cccc1Oc1ncc(Cl)cn1 .
90

----------
Below, each entry is listed alongside its reported Corn plant response rating.
system: corn (Zea mays); test: Test C postemergence, plant response rating; type: in vivo; settings: 62 g ai/ha, scale 0 to 100 (0 no effect, 100 complete control)
Please give the numeric answer without any surrounding text.

Examples from the recorded data:
smiles_representation=O=C(CCCC(F)(F)F)c1c(Cl)cccc1Oc1ncc(Cl)cn1 measured_value=20
smiles_representation=O=C(CCC(F)(F)C(F)(F)F)c1c(Br)cccc1Oc1ncc(Cl)cn1 measured_value=20
smiles_representation=CCCC(=O)c1c(Oc2ncc(Cl)cn2)cccc1C(F)(F)F measured_value=20
smiles_representation=N#Cc1cccc(Oc2ncc(Cl)cn2)c1COCCC(F)(F)F measured_value=15

Could you now consider this next compound?
Note down Corn plant response rating recorded for CCCCC(=O)c1c(Br)cccc1Oc1ncc(Cl)cn1
20

----------
system: foxtail, giant (giant foxtail, Setaria faberii); assay: Test C preemergence, plant response rating; format: in vivo; conditions: Setaria faberi, pre-emergence; Preemergence; 31 g ai/ha; scale 0 to 100
quantity name: pest or weed control at 31 g/ha (%)
Give the number; % is assumed, so skip it.

Examples from the recorded data:
compound=O=C(CCC(F)(F)F)c1c(Cl)cccc1Oc1ncc(Cl)cn1 measured_value=98
compound=N#Cc1cccc(Oc2ncc(Cl)cn2)c1CCCCC(F)(F)F measured_value=100
compound="CC(CC(F)(F)F)OC(=O)c1c(Br)cccc1Oc1ncc(Cl)cn1 (centres unmarked)" measured_value=25

Provide pest or weed control at 31 g/ha, tested on foxtail, giant (giant foxtail, Setaria faberii), for C=CCCOC(=O)c1c(Br)cccc1Oc1ncc(Cl)cn1 .
80

Provide pest or weed control at 31 g/ha, tested on foxtail, giant (giant foxtail, Setaria faberii), for O=C(OCCC(F)(F)F)c1c(Cl)cccc1Oc1ncc(Cl)cn1 .
100
